Target: histone deacetylase (HDAC)
Assay: Inhibition of Histone Deacetylase Enzymatic Activity
Conditions: substrate Boc-Lys(Ac)-AMC, Fluor-de-Lys developer, 37° C., 20 min; against one or more of HDAC-1 to HDAC-11, SirT1 to SirT7 (isoform not given); read-out: HDAC Inhibitory Activity (IC50)
pIC50: −log10 of the molar value.
Can you tell me pIC50 for the items I'm about to list?

These recorded examples may help you get a feel for the data.
In [3]: df
Out[3]:
                                   molecule  experimental_result
0  CC(C)[C@H]1C(=O)Nc2cc(C(=O)NO)ccc2N1Cc1ccc(O)cc1 [Compound 16b]         5.70 to 6.30
1  CC(C)[C@@H]1Nc2ccc(NC(=O)CCCCCCC(=O)Nc3ccccc3N)cc2NC1=O [Compound 23a]         5.00 to 5.70
2  O=C(NO)c1ccc(CN2c3ccccc3NC(=O)[C@H]2Cc2cccnc2)cc1               > 7.30
3  COc1ccc(CN2c3ccccc3NC(=O)C2CCCCCC(=O)Nc2cc(-c3cccs3)ccc2N)cc1 (centres unmarked)         6.30 to 7.30
4  O=C(CCO[C@@H]1C[C@H](C(=O)Nc2cccc3cccnc23)N(C(=O)OCc2ccccc2)C1)NO [Compound 112c]         5.70 to 6.30

Field: pIC50. Fill in for each record below.
1. CC(C)[C@@H]1NC(=O)c2ccc(C(=O)NO)cc2NC1=O [Compound 97b]
2. O=C(NO)c1ccc(CN2c3ccccc3NC(=O)[C@@H]2Cc2ccccc2)cc1
3. Nc1ccccc1NC(=O)c1ccc(CN2c3ccccc3NC(=O)[C@@H]2Cc2cccs2)cc1 [Compound 54c]
4. O=C(NO)c1ccc(NC(=O)N2c3ccccc3NC(=O)[C@H]2Cc2ccc(F)c(F)c2)cc1
5. O=C(CCCCCC1NC(=O)c2ccccc2N(CCc2c[nH]c3ccccc23)C1=O)NO (centres unmarked)
6. O=C(NO)c1ccc(CN2c3ccccc3NC(=O)[C@H]2Cc2ccc(C(F)(F)F)cc2)cc1
7. O=C(NO)c1ccc(CN2c3ccccc3NC(=O)[C@@H]2Cc2csc3ccccc23)cc1
8. O=C(NO)c1ccc2c(c1)NC(=O)[C@H](Cc1c[nH]c3ccccc13)N2

["5.00 to 5.70", "> 7.30", "6.30 to 7.30", "> 7.30", "6.30 to 7.30", "6.30 to 7.30", "6.30 to 7.30", "5.70 to 6.30"]

Field: pIC50. Fill in for each record below.
1. CC(C)[C@H]1NC(=O)c2ccc(C(=O)NO)cc2NC1=O [Compound 97a]
2. O=C(NO)c1ccc(O[C@@H]2C[C@@H](C(=O)Nc3cccc4cccnc34)N(C(=O)OCc3ccccc3)C2)cc1 [Compound 109b]
3. O=C1CNC(=O)c2ccc(C(=O)NO)cc2N1 [Compound 97k]
4. CC(C)[C@H]1C(=O)Nc2cc(C(=O)NO)ccc2N1Cc1cccs1 [Compound 16e]

5.00 to 5.70
6.30 to 7.30
5.00 to 5.70
5.00 to 5.70
